target: extracellular domain of human BLyS protein (hBLyS-ECD), His-tagged, Ala134-Leu285 (human, UniProt Q9Y275 134-285)
Sequence (Q9Y275 134-285): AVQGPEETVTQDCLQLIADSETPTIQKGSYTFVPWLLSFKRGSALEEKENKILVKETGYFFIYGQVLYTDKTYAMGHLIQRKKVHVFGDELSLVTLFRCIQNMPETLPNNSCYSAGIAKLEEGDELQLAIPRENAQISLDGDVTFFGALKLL
measurement.description: cell-based or functional assay
// reported OD450 nm (as headed), mouse B lymphocyte proliferation; antibody 20 nM for each item listed
readout.name: OD450 nm (as headed), mouse B lymphocyte proliferation; antibody 20 nM

| binder | quantitative.readout |
| --- | --- |
| c8E7D9C7F5 (antibody, V domains shown, also called chimeric antibody c8E7D9C7F5) VH: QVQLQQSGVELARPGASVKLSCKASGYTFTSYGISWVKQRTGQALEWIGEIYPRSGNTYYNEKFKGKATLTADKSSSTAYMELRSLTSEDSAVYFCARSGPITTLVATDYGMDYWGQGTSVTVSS VL: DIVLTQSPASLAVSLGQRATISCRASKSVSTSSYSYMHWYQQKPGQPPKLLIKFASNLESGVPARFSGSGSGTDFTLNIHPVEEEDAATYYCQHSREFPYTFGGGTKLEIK | 367 |
| c67A2E1D10 (antibody, V domains shown) VH: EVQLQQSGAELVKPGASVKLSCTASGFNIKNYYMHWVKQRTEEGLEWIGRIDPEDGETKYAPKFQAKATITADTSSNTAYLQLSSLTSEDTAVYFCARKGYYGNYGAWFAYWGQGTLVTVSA VL: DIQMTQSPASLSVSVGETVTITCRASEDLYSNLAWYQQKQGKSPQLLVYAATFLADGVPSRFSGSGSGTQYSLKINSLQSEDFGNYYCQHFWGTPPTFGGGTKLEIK | 2610 |
| c97A3C2H4 (antibody, V domains shown, also called chimeric antibody c97A3C2H4) VH: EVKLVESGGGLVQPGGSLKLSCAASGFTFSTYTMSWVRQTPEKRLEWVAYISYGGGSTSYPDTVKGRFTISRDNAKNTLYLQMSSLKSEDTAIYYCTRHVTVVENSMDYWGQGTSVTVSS VL: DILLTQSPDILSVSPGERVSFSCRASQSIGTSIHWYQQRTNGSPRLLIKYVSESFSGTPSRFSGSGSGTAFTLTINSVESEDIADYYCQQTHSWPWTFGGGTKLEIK | 424 |
| c93C6F10D3 (antibody, V domains shown) VH: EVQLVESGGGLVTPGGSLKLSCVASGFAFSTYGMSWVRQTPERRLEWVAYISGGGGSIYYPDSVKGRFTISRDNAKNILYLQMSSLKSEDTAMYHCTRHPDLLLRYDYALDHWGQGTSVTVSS VL: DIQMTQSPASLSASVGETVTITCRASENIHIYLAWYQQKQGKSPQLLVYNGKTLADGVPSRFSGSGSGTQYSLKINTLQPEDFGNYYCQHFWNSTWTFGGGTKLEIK | 434 |
